# PROTOCOL NOTES: IV pharmacokinetics
# Format: in vivo
# CONDITION NOTES: Sprague Dawley, rat, in vivo, iv, 2 mg/kg, Sprague Dawley rats, normal saline
READOUT LABEL: clearance (mL/min/kg)
The figure you give is taken to be in mL/min/kg; do not add the unit.

{"MOLECULE": "CC(=O)N1C(C(=O)N[C@H](C(N)=O)[C@@H](C)O)CCC12CNC2=O (stereo partly shown)", "UNITS SYMBOL": "mL/min/kg", "clearance": 7.59}
{"MOLECULE": "C[C@@H](O)[C@@H](C(N)=O)N1CC2(CCC3(CN([C@H](C(N)=O)[C@@H](C)O)C3=O)N2C(=O)OC(C)(C)C)C1=O (stereo partly shown)", "UNITS SYMBOL": "mL/min/kg", "clearance": 5.6}
{"MOLECULE": "C[C@@H](O)[C@H](NC(=O)C1CCC2(CNC2=O)N1Cc1ccccc1)C(N)=O (single isomer, unassigned)", "UNITS SYMBOL": "mL/min/kg", "clearance": 33.3}
{"MOLECULE": "CC(C)C(=O)N1C2(CCC13CNC3=O)CNC2=O (single isomer, unassigned)", "UNITS SYMBOL": "mL/min/kg", "clearance": 10.9}

input: Would you mind telling me what clearance value was observed for C[C@@H](O)[C@H](NC(=O)C1CCC2(CNC2=O)N1)C(N)=O (single isomer, unassigned) ?
output: 9.84

input: Would you mind telling me what clearance value was observed for CC(C)(C)OC(=O)N1C(C(N)=O)CCC12CN(OCc1ccccc1)C2=O (single isomer, unassigned) ?
output: 50.5

input: Would you mind telling me what clearance value was observed for CC(C)C(=O)N1C(C(=O)N[C@H](C(N)=O)[C@@H](C)O)CCC12CNC2=O (single isomer, unassigned) ?
output: 11.8
